- protocol_summary: BHET released, HPLC; higher = more BHET released; extreme values may be limits of the assay
- reported_conditions: PET substrate: aFilm; 70 °C; pH 7.5; 24 h
measured_property: BHET released

entry_sequence	experimental_value
QTNPYARGPNPTAASLEASAGPFTVRSFTVSRPSGYGAGTVYYPTNAGGTVGAIAIVPGYTARQSSIKWWGPRLASHGFVVITIDTNSTFDYPSSRSSQQMAALRQVASLNGDSSSPIYGKVDTARMGVMGHSMGGGASLRSAANNPSLKAAIPQAPWDSQTNFSSVTVPTLIFACENDSIAPVNSHALPIYDSMSRNAKQFLEINGGSHSCANSGNSNQALIGKKGVAWMKRFMDNDTRYSTFACENPNSTAVSDFRTANCS [DuraPETase]	0 mM
QDNPYERGPDPTEDSIEAIRGPFSVATERVSSFASGFGGGTIYYPRETDEGTFGAVAVAPGFTASQGSMSWYGERVASHGFIVFTIDTNTRLDAPGQRGRQLLAALDYLVERSDRKVRERLDPNRLAVMGHSMGGGGSLEATVMRPSLKASIPLTPWHLDKTWGQVQVPTFIIGAELDTIAPVSTHAKPFYESLPSSLPKAYMELCGATHFAPNIPNTTIAKYVISWLKRFVDEDTRYSQFLCPNPTDRAICEYRSTCPY [Cut190*SS]	0.00861 mM

These measurements were taken from the supplement of paper PMC11196671.
